TESTED TARGET: MAGI1_3, Q96QZ7
Sequence (Q96QZ7 638-725): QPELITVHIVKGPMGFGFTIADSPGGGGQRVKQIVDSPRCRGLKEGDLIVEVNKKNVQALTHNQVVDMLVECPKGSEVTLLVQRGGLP
TEST PROTOCOL: holdup assay
Parameters: key: below the threshold = too weak to quantify, mostly under pKd 3.1 to 4
DETAILS: plain residues with an end cap or a label only (N-terminal biotin on a linker: ttds)

- BINDER: "SSIDLWETAL [SLC15A5, A6NIM6]"
  pKd: "below the threshold"
- BINDER: "SRSRRRETAL [HPV33-E6, P06427]"
  pKd: "below the threshold"
- BINDER: "SHSSKGETAV [FZD7, O75084]"
  pKd: "below the threshold"
- BINDER: "PSRDRKETSI [RALBP1, Q15311]"
  pKd: "below the threshold"
